Cited source: paper PMC12073635

# PROTOCOL NOTES: SRB assay, toxicity in non-tumor PLP2 cells
# Assay type: cell-based, pig
# STATED CONDITIONS: PLP2 primary pig liver cells (non-tumor); non-tumor primary pig liver cells, SRB assay, 72 h, mean ± standard deviation
TEST READOUT: GI50 at 72 h

Examples from the recorded data:
Cc1ccc(-c2cc3c(sc4nccnc43)c(=O)o2)cc1    90.5 µM
O=c1oc(-c2ccccn2)cc2c1sc1nccnc12    > 125 µM
COc1ccc(-c2cc3c(sc4nccnc43)c(=O)o2)cc1    > 125 µM

Request: # GI50 at 72 h lookup, item COc1cccc2c1C(=O)c1c(O)c3c(c(O)c1C2=O)C[C@@](O)(C(=O)CO)C[C@@H]3O[C@H]1C[C@H](N)[C@H](O)[C@H](C)O1 [doxorubicin, Doxorubicin, reference compound]
Result: 0.1 µM

Request: # GI50 at 72 h lookup, item `COC(=O)c1sc2nccnc2c1C#Cc1ccccn1`
Result: 57.9 µM

Request: # GI50 at 72 h lookup, item `Nc1ccc(-c2cc3c(sc4nccnc43)c(=O)o2)cc1`
Result: > 125 µM

Request: # GI50 at 72 h lookup, item `COC(=O)c1sc2nccnc2c1C#Cc1ccc(C)cc1`
Result: > 125 µM

Request: # GI50 at 72 h lookup, item `COC(=O)c1sc2nccnc2c1C#Cc1ccc(N)cc1`
Result: > 125 µM

Request: # GI50 at 72 h lookup, item `O=c1oc(-c2ccccc2)c(Cl)c2c1sc1nccnc12`
Result: 66.8 µM

Request: # GI50 at 72 h lookup, item `Cc1c(-c2ccccc2)oc(=O)c2sc3nc4ccccc4cc3c12`
Result: > 125 µM

Request: # GI50 at 72 h lookup, item `O=c1oc(-c2ccsc2)cc2c1sc1nccnc12`
Result: > 125 µM

Request: # GI50 at 72 h lookup, item `CCCCc1oc(=O)c2sc3nc4ccccc4cc3c2c1CCCC`
Result: > 125 µM

Request: # GI50 at 72 h lookup, item `COC(=O)c1sc2nccnc2c1C#Cc1ccsc1`
Result: 90.5 µM
